Here we list compounds with their recorded pKi when tested on Alpha-2C adrenergic receptor (Homo sapiens, UniProt P18825).
Sequence (P18825 whole entry): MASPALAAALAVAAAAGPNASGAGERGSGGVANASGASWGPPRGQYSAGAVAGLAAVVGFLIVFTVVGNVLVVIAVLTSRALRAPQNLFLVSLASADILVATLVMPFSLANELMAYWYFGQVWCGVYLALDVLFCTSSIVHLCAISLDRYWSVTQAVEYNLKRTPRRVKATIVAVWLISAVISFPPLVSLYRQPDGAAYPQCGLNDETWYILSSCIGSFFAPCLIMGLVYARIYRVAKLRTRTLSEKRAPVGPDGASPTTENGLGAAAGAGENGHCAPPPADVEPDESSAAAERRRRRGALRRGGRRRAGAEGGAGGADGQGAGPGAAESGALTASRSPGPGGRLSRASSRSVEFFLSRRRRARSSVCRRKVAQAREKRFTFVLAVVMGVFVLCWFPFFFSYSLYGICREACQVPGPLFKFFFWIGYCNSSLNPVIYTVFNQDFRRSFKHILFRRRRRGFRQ
Give bare numbers, as −log10 of the molar value.

Look over these answered cases.
CN1C[C@H](Cn2ccnc2-c2ccccc2)C[C@@H]2c3cccc4[nH]c(Br)c(c34)C[C@H]21 [BAM-1303] : 9.41
COc1cccc(OC)c1OCCNCC1Oc2ccccc2OC1c1ccccc1 (centres undefined) [NSC_185453] : 9.40
COc1ccccc1N1CCN(CCC2C(=O)c3ccccc3C(C)(C)C2=O)CC1 (centres undefined) [NSC_122211] : 8.42

Now consider a different compound.
Requested field: pKi. Item: O=C1NCN(c2ccccc2)C12CCN(CC1COc3ccccc3O1)CC2 (centres undefined)
9.89
